Where these numbers come from: PubChem BioAssay

experimental protocol: HUVEC growth inhibition – cell-based, human, primary screen (AID 575);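 further: 100% = median of untreated cell wells with 0.1% DMSO on each plate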
stated conditions: HUVEC proliferation, CellTiter-Glo luminescence, 72 h; at 10 µM; hits give low values
reported metric: viability (%)
Provide the reading as a plain figure in %.

* COc1ccc(S(=O)(=O)Nc2ccccc2OC)cc1C | 93.8

IN: Data request, read-out viability, for C1=CC2CC1CC2CN1CCN(c2ccccc2)CC1 (stereo not given)
OUT: 97.7

IN: Data request, read-out viability, for CCCNC(=O)c1cc(-c2ccco2)on1
OUT: 88.3

IN: Data request, read-out viability, for COc1ccc(S(=O)(=O)Nc2cc(C)on2)cc1OC
OUT: 97.1

IN: Data request, read-out viability, for CC1Oc2ccccc2N(CC(=O)NCc2cccs2)C1=O (stereo not given)
OUT: 98.8

IN: Data request, read-out viability, for Cc1cc(C)cc(N2C(=O)C3C4C=CC(C4)C3C2=O)c1 (stereo not given)
OUT: 109
